Catalogue of clearance values
Test: Plasma clearance in iv dosed dog
Format: ADME, organism-based, Canis lupus familiaris

{"COMPOUND": "C[C@@H]1CN(Cc2ccc(F)cc2)[C@@H](C)CN1C(=O)COc1ccc(Cl)cc1CS(=O)(=O)O", "clearance / mL/min/kg": 0.2}
{"COMPOUND": "C[C@@H]1CN(Cc2ccc(F)cc2)CCN1C(=O)COc1ccc(Cl)cc1NC(N)=O [BX 471 FREE BASE]", "clearance / mL/min/kg": 1.7}
{"COMPOUND": "C[C@@H]1CN(Cc2ccc(F)cc2)[C@@H](C)CN1C(=O)COc1ccc(Cl)cc1CC(=O)O", "clearance / mL/min/kg": 0.4}
{"COMPOUND": "C[C@@H]1CN(Cc2ccc(F)cc2)[C@@H](C)CN1C(=O)COc1ccc(Cl)cc1C(=O)CCC(=O)O", "clearance / mL/min/kg": 9.7}
{"COMPOUND": "C[C@@H]1CN(Cc2ccc(F)cc2)[C@@H](C)CN1C(=O)COc1ccc(Cl)cc1C(=O)O", "clearance / mL/min/kg": 0.2}
